This collection of values is drawn from the RNAGym collection of RNA variant scans (doi:10.1038/nmeth.2970).

B1: NELF-E aptamer (parent)
chain: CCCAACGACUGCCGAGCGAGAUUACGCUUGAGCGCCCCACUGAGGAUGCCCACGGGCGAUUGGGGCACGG

- Variants of: B1
- test_method_notes: HiTS-RAP
- assay_conditions: with NELF-E (Drosophila)
# fulfilled = Kd below 6 nM (exclusive); not fulfilled = Kd at/above 6 nM

Please review the following examples before continuing.
Please indicate whether the reported Kd of A5U U10A is strictly below 6 nM.
not fulfilled

Decide: Kd of U10C U61C strictly below 6 nM?
not fulfilled

Please let me know if G18U U29G shows Kd below 6 nM.
not fulfilled

---
Lab log: compare recorded Kd with 6 nM; is it strictly lower for U29G G30U ?
fulfilled

# strict comparison: is reported Kd < 6 nM? input = U10G G42U
not fulfilled

Is Kd of A5U A21G strictly below 6 nM?
not fulfilled
